Data origin, for the record: ChEMBL document CHEMBL1201862

Test system: OVCAR-8
ASSAY COMMENT: NCI tumour cell line growth inhibition, 48 h
Activity calls are given as the source filed them. Cut-off read from the data, not from the text of the source: active = GI50 up to about 1.1 µM and inactive = higher.
API: response.call in active, inactive

A selection of reference data follows.
1. CCCCCCOc1ccc(NC2=C(Cl)C(=O)c3ncccc3C2=O)cc1
inactive
2. CCCCCC(/C=C/C1CCC(=O)C1CC#C[Si](C)(C)C)OCc1ccccc1 (stereo not given)
inactive
3. O=C(CSC(=S)N1CCOCC1)Nc1nc2c(s1)CCCC2
inactive
4. c1ccc(NN/N=N/c2ccc(-c3nc4ccccc4[nH]3)cc2)cc1
inactive
5. O=C1/C(=C/c2ccccc2)CN(C(=O)Oc2ccc([N+](=O)[O-])cc2)C/C1=C\c1ccccc1
active
6. Oc1c2c(c(O)c3ccccc13)C1(N=N2)c2ccccc2Oc2ccccc21
inactive
7. CCCCCCCCCCCCCCCCP(=O)(OC)OC
inactive
8. COc1cc2c(cc1Cl)[n+]([O-])c(C#N)c(N1CCN(c3ccc([N+](=O)[O-])cc3)CC1)[n+]2[O-]
inactive

Recorded test outcome, item CCOC(=O)c1cc2cc(N(C(C)=O)C(C)=O)ccc2s1 inactive

Identify the outcome logged in this assay for the compound shown: CCN(CC)CCC1CCCCN1CC(=O)N1c2cc(Cl)ccc2NC(=O)CC1C (stereo not given) inactive
